Reported values: pIC50 for ATM (Homo sapiens (Human), UniProt Q13315), one per item.
Hey, just a heads up that pIC50 is the negative log base 10 of the concentration in molar.

Past entries and their recorded results:
molecule	pIC50
Cn1c(=O)n2c3c4c(c(-c5ccc(OCCCN6CCCCC6)nc5)ccc4ncc31)OCC21CC1 [Example A-68]	9.43
C[C@H]1COc2c(-c3ccc(OCCCN4CCCCC4)nc3)c(F)cc3ncc4c(c23)n1c(=O)n4C [Example A-1]	9.10
CC[C@H]1COc2c(-c3ccc(OCCCN4CCCCC4)nc3)ccc3ncc4c(c23)n1c(=O)n4C [Example A-186]	9.42

Bench note, ATM (Homo sapiens (Human), UniProt Q13315): entry CN(C)CCCOc1ccc(-c2c(F)cc3ncc4c5c3c2OCC(C)(C)n5c(=O)n4C)cn1 [Example A-46] , its pIC50 = 9.28

----------
This document collects IC50 values reported for ATM (Homo sapiens (Human), UniProt Q13315).
Your answer is read as nM, so omit the unit and give the number.

Here are 3 compounds together with their reported answers.
compound	studyTarget	IC50 (nM)
Cn1c(=O)n2c3c4c(c(-c5ccc(OCCCN6CC[C@H](F)C6)nc5)c(F)cc4ncc31)OCC21CCC1 [Example A-161]	ATM (Homo sapiens (Human), UniProt Q13315)	0.32
CC[C@@H]1COc2c(-c3ccc(OCCCN4CCCCC4)nc3)c(F)cc3ncc4c(c23)n1c(=O)n4C [Example A-22]	ATM (Homo sapiens (Human), UniProt Q13315)	0.52
COc1cc2ncc3c4c2c(c1-c1cnn(C)c1)OCC(c1ccccn1)n4c(=O)n3C (stereo not shown) [Example A-30]	ATM (Homo sapiens (Human), UniProt Q13315)	0.27

// below: IC50 requested for another compound
# lookup: C[C@H]1COc2c(-c3ccc(N4CCC(N(C)C)CC4)nc3)c(F)cc3ncc4c(c23)n1c(=O)n4C [Example A-159] on ATM (Homo sapiens (Human), UniProt Q13315), IC50 = 0.92

----------
studyTarget: PI3Kα (p110α/p85α) (Homo sapiens (Human), UniProt P42336)
Sequence (P42336 whole entry): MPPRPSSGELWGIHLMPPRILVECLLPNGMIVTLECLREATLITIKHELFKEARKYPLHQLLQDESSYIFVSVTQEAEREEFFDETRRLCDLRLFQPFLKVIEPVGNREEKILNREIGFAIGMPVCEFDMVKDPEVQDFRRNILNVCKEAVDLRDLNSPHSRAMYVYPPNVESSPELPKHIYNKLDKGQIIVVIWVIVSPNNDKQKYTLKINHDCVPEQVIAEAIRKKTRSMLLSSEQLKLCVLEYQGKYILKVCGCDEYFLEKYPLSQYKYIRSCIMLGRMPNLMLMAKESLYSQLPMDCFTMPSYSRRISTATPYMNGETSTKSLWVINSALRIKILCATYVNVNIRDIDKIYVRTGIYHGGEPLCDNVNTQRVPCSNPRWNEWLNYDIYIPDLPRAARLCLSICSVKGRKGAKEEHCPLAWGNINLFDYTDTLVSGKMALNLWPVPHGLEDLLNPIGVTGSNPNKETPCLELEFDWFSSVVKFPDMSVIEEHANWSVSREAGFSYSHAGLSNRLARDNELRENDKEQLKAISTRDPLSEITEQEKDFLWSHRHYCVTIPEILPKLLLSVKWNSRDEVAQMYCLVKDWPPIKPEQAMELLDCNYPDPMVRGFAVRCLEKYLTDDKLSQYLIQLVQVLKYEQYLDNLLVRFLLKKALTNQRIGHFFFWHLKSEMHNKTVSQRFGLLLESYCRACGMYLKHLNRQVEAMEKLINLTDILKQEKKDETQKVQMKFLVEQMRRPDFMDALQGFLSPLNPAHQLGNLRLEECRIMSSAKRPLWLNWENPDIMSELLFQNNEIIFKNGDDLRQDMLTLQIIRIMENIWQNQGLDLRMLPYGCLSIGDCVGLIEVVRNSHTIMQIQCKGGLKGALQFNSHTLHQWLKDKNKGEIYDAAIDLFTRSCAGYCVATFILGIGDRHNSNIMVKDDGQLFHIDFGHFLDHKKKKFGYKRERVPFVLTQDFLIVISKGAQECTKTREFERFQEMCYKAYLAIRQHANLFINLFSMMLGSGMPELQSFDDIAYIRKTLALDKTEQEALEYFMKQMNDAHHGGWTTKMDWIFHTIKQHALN
Sequence (P27986 whole entry partner): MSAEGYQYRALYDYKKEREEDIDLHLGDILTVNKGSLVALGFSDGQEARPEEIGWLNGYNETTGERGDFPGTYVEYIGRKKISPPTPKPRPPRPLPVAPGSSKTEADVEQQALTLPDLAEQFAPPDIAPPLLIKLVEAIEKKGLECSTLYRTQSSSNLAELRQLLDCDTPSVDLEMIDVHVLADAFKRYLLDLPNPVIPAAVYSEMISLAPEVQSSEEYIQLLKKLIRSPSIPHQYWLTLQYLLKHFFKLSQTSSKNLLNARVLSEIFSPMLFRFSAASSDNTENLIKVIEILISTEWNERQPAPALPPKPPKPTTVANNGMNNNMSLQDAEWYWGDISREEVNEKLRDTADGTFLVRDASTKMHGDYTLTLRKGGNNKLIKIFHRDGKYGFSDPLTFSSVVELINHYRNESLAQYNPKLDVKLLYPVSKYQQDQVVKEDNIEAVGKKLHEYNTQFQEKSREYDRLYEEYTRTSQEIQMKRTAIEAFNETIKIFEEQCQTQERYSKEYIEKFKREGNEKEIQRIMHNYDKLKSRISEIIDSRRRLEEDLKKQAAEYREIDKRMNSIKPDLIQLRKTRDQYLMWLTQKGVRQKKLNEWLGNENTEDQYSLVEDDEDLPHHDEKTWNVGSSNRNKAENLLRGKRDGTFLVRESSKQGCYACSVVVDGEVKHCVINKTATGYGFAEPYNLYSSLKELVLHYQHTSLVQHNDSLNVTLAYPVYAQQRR
assayText: ADP-Glo kinase assay for PI3Kα
particulars: read-out: IC50 of kinase inhibitory activity, PI3K α
measuredQuantity: pIC50
FYI, pIC50 means -log10 of a concentration in mol per litre.

For this compound ( CC[C@@H]1COc2c(-c3ccc(OCCCN4CCCCC4)nc3)c(F)cc3ncc4c(c23)n1c(=O)n4C [Example A-22] ), measured pIC50 is 5.20
